B1: unnamed (parent)
chain 1: DHQIRELTAKMETQSMYVSELKRTIRTLEDKVAEIEAQQCNGIYIWKIGNFGMHLKCQEEEKPVVIHSPGFYTGKPGYKLCMRLHLQLPTAQRCANYISLFVHTMQGEYDSHLPWPFQGTIRLTILDQSEAPVRQNHEEIMDAKPELLAFQRPTIPRNPKGFGYVTFMHLEALRQRTFIKDDTLLVRCEVSTRFDMGSLRREGFQPRSTDAGV
chain 2: LIWMYYHGQRHSDEHHHDDSLPHPQQATDDSGHESDSNSNEGRHHLLVSGAGDGPPLCSQNLGAPGGGPDNGPQDPDNTDDNGPQDPDNTDDNGPHDPLPQDPDNTDDNGPQDPDNTDDNGPHDPLPHSPSDSAGNDGGPPQLTEEVENKGGDQGPPLMTDGGGGHSHDSGHGGGDPHLPTLLLGSSGSGGDDDDPHGPVQLSYYD

Variants of: B1
Test: AlphaScreen
Conditions: with partner chain of the complex shown; 300 nM His-TRAF6; parent: 100; read off a plot
Reported percent of parent by item:
QUANTITY: percent of parent (%)

VARIANT NAME | QUANTITY | UNIT TAG | READOUT VALUE
chain 2 Y204A | percent of parent | % | 10
chain 2 L202A | percent of parent | % | 98
chain 2 P24A Q26A T28A | percent of parent | % | 98
chain 2 S203A | percent of parent | % | 88
chain 2 V200A | percent of parent | % | 15
chain 2 P199A | percent of parent | % | 19
chain 2 Q201A | percent of parent | % | 6
chain 2 Y205A | percent of parent | % | 65
chain 2 G198A | percent of parent | % | 84
